experiment: Competitive inhibition of porcine elastase by the compound was evaluated; set-up: species or system Sus scrofa
pKi: recorded values
pKi here is simply -log10 of the concentration when that concentration is written in mol/L.

INSERT INTO assay_data (compound, meas_value) VALUES
  ('CC[C@H](C)[C@H](NC(=O)C(C)NC(=O)OCc1ccccc1)B(F)F (stereo not given in full)', 7.00),
  ('CC[C@H](C)[C@H](NC(=O)C(C)NC(=O)OCc1ccccc1)B(O)O (stereo not given in full)', 6.92),
  ('CC(NC(=O)OCc1ccccc1)C(=O)N[C@H](B(F)F)C(C)C (stereo not given in full)', 6.00);

Could you tell me which pKi is on file for CC(NC(=O)OCc1ccccc1)C(=O)N[C@H](B(O)O)C(C)C (stereo not given in full) ?
5.96

Could you tell me which pKi is on file for CC(NC(=O)OCc1ccccc1)C(=O)N[C@@H](C)B(F)F (stereo not given in full) ?
4.46
